- Test system: E. coli KCTC1682
- Assay type: cell-based, Escherichia coli
- Experimental Conditions: KCTC1682, 16 h
Where no end group is shown, it is not given here.
Recorded Endpoint: MIC (µM)
API: value field is a number in µM; no unit string.

Value of measured MIC for the entry FFHHIFRGIKHVGKTIHRLVTG [Pis-V10K] : 1.0

Value of measured MIC for the entry FFHHIARGIVHVGKTIHRLVTG [Pis-F6A] : 2.0

Value of measured MIC for the entry KFHHIFRGIKHVGKTIHRLVTG [Pis-F1K/V10K] : 1.0

Value of measured MIC for the entry FKHHIFRGIVHVGKTIHRLVTG [Pis-F2K] : 4.0

Value of measured MIC for the entry AFHHIFRGIVHVGKTIHRLVTG [Pis-F1A] : 2.0

Value of measured MIC for the entry FAHHIFRGIVHVGKTIHRLVTG [Pis-F2A] : 2.0

Value of measured MIC for the entry FKHHIFRGIKHVGKTIHRLVTG [Pis-F2K/V10K] : 1.0

Value of measured MIC for the entry FFHHIKRGIKHVGKTIHRLVTG [Pis-F6K/V10K] : 2.0

Value of measured MIC for the entry FFHHIKRGIVHVGKTIHRLVTG [Pis-F6K] : 4.0

Value of measured MIC for the entry KFHHIFRGIVHVGKTIHRLVTG [Pis-F1K] : 4.0

---

- Tested on: MDRAB CCARM 12037
- Type: cell-based, multidrug-resistant Acinetobacter baumanii
- Experimental Conditions: broth microdilution, 37°C, 16 h, three independent experiments in triplicate, SD 14.0%
Where no end group is shown, it is not given here.
Exercise: state measured MIC for each of the sequences provided.
Just so you know, I need the unit written after the number.

Value of measured MIC for the entry FFHHIKRGIVHVGKTIHRLVTG [Pis-F6K] : 4.0 µM

Value of measured MIC for the entry FKHHIFRGIKHVGKTIHRLVTG [Pis-F2K/V10K] : 2.0 µM

Value of measured MIC for the entry FFHHIKRGIKHVGKTIHRLVTG [Pis-F6K/V10K] : 4.0 µM

Value of measured MIC for the entry FFHHIARGIVHVGKTIHRLVTG [Pis-F6A] : 4.0 µM

Value of measured MIC for the entry AFHHIFRGIVHVGKTIHRLVTG [Pis-F1A] : 2.0 µM

Value of measured MIC for the entry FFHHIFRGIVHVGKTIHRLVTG [Pis-1, reference compound] : 2.0 µM

Value of measured MIC for the entry FKHHIFRGIVHVGKTIHRLVTG [Pis-F2K] : 2.0 µM

Value of measured MIC for the entry FAHHIFRGIVHVGKTIHRLVTG [Pis-F2A] : 4.0 µM

Value of measured MIC for the entry FFHHIFRGIKHVGKTIHRLVTG [Pis-V10K] : 2.0 µM

Value of measured MIC for the entry KFHHIFRGIKHVGKTIHRLVTG [Pis-F1K/V10K] : 2.0 µM

Value of measured MIC for the entry KFHHIFRGIVHVGKTIHRLVTG [Pis-F1K] : 2.0 µM

---

Exercise: state measured MIC for each of the sequences provided.
- System: MDRST CCARM 8009
- Format: cell-based, multidrug-resistant S. typhimurium
- Experimental Conditions: broth microdilution, 37°C, 16 h, three independent experiments in triplicate, SD 14.0%
Where no end group is shown, it is not given here.
API: value field is a number in µM; no unit string.

Value of measured MIC for the entry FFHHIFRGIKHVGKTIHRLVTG [Pis-V10K] : 4.0

Value of measured MIC for the entry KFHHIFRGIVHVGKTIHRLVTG [Pis-F1K] : 4.0

Value of measured MIC for the entry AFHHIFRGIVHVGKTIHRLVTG [Pis-F1A] : 8.0

Value of measured MIC for the entry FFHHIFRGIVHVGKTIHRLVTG [Pis-1, reference compound] : 4.0

Value of measured MIC for the entry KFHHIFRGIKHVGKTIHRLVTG [Pis-F1K/V10K] : 8.0

---

- System: S. aureus KCTC1621
- Assay type: cell-based, Staphylococcus aureus
- Experimental Conditions: KCTC1621, 16 h
Where no end group is shown, it is not given here.
Exercise: state measured MIC for each of the sequences provided.
API: value field is a number in µM; no unit string.

Value of measured MIC for the entry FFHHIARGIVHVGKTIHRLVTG [Pis-F6A] : 4.0

Value of measured MIC for the entry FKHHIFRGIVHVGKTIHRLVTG [Pis-F2K] : 4.0

Value of measured MIC for the entry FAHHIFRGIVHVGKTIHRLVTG [Pis-F2A] : 4.0

Value of measured MIC for the entry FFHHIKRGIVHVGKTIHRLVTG [Pis-F6K] : 4.0

Value of measured MIC for the entry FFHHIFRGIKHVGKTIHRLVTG [Pis-V10K] : 1.0

Value of measured MIC for the entry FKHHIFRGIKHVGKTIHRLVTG [Pis-F2K/V10K] : 2.0

Value of measured MIC for the entry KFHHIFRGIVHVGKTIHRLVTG [Pis-F1K] : 2.0

Value of measured MIC for the entry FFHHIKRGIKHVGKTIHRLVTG [Pis-F6K/V10K] : 4.0

Value of measured MIC for the entry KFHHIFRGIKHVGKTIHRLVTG [Pis-F1K/V10K] : 2.0

Value of measured MIC for the entry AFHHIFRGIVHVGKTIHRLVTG [Pis-F1A] : 1.0

---

- Tested on: E.coli KCTC2571
- Assay type: cell-based, Escherichia coli
- Experimental Conditions: KCTC2571, 16 h
Where no end group is shown, it is not given here.
Exercise: state measured MIC for each of the sequences provided.
API: value field is a number in µM; no unit string.

Value of measured MIC for the entry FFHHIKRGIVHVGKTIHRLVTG [Pis-F6K] : 4.0

Value of measured MIC for the entry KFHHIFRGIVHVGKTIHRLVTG [Pis-F1K] : 2.0

Value of measured MIC for the entry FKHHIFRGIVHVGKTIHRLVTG [Pis-F2K] : 2.0

Value of measured MIC for the entry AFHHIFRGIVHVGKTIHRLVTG [Pis-F1A] : 2.0

Value of measured MIC for the entry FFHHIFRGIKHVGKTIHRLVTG [Pis-V10K] : 2.0

Value of measured MIC for the entry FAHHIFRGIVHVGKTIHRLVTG [Pis-F2A] : 2.0

Value of measured MIC for the entry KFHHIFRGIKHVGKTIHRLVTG [Pis-F1K/V10K] : 2.0

Value of measured MIC for the entry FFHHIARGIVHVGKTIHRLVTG [Pis-F6A] : 4.0

Value of measured MIC for the entry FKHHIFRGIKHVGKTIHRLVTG [Pis-F2K/V10K] : 4.0

Value of measured MIC for the entry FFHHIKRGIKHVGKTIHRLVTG [Pis-F6K/V10K] : 4.0

---

- Test system: S. aureus KCTC3881
- Type: cell-based, Staphylococcus aureus
- Experimental Conditions: KCTC3881, 16 h
Where no end group is shown, it is not given here.
Recorded Endpoint: MIC
Just so you know, I need the unit written after the number.

Value of measured MIC for the entry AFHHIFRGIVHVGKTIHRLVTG [Pis-F1A] : 2.0 µM

Value of measured MIC for the entry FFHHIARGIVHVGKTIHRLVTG [Pis-F6A] : 4.0 µM

Value of measured MIC for the entry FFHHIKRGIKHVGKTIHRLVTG [Pis-F6K/V10K] : 4.0 µM

Value of measured MIC for the entry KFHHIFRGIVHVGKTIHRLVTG [Pis-F1K] : 2.0 µM

Value of measured MIC for the entry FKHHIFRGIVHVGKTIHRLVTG [Pis-F2K] : 2.0 µM

Value of measured MIC for the entry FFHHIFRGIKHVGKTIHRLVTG [Pis-V10K] : 1.0 µM

Value of measured MIC for the entry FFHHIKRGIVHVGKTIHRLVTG [Pis-F6K] : 4.0 µM

Value of measured MIC for the entry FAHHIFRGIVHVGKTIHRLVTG [Pis-F2A] : 2.0 µM

Value of measured MIC for the entry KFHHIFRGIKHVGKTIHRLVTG [Pis-F1K/V10K] : 2.0 µM

---

- Test system: S. typhimurium KCTC1926
- Format: cell-based, Salmonella typhimurium
- Experimental Conditions: KCTC1926, 16 h
Where no end group is shown, it is not given here.
Recorded Endpoint: MIC (µM)
API: value field is a number in µM; no unit string.

Value of measured MIC for the entry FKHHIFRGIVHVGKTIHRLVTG [Pis-F2K] : 8.0

Value of measured MIC for the entry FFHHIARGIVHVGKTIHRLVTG [Pis-F6A] : 16

Value of measured MIC for the entry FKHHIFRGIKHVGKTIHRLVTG [Pis-F2K/V10K] : 2.0

Value of measured MIC for the entry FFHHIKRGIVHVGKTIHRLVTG [Pis-F6K] : 8.0

Value of measured MIC for the entry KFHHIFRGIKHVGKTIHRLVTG [Pis-F1K/V10K] : 1.0
